- System: UO-31
- RUN_DESCRIPTION: NCI tumour cell line growth inhibition, 48 h
Activity calls are given as the source filed them. Rule as the data show it: active = GI50 up to about 1.1 µM and inactive = higher. Starred links: 1 amine or outer side, 2 acyl side, 3 side chain; linkers in the order of their positions; H or OH if unused. Positions of bridges follow the written chain, without caps; N, C: chain ends. Non-standard residues stand in square brackets, D forms with d. Residues, ends and D or L forms follow the SMILES beside them. ξ: configuration not given here. *: point of attachment. γ4hArg(2R,3R-(OH)2) = N=C(N)NCCC[C@H](N[*:1])[C@@H](O)[C@@H](O)C(=O)[*:2]; Gln(3S,4R-Me2) = C[C@H]([C@H](N)C(=O)O)[C@@H](C)C(N)=O; X50 = CC(C)C[C@H](C)[C@@H](O)[C@@H](C)C(=O)*; X51 = COC(c1ccc(O)cc1)C(N[*:1])C(=O)[*:2]; NMeQ = CN[C@@H](CCC(N)=O)C(=O)O; Thr(3ξ) = CC(O)[C@H](N)C(=O)O; NMeA = CN[C@@H](C)C(=O)O
Write down the outcome that applies. Available outcomes: active, inactive

1. Cc1nc(C)c(N2CCN(S(N)(=O)=O)CC2)c(O)n1	inactive
2. N#CC1=C(N)Nc2nc3ccccc3n2C1c1ccccc1 (stereo unspecified)	inactive
3. COC1=CC(O)(CC(N)=O)c2ccccc2C1=O (stereo unspecified)	inactive
4. COc1ccc2c(c1O)[C@@]13CCCC=C1[C@@H](C2)N(C)CC3	inactive
5. NC1C2C=CC(C2)C1C(=O)O (stereo unspecified)	inactive

[ask] Outcome? COc1ccc2c(c1C)C(=O)C(O)(CC=C(C)C)O2 (stereo unspecified)
[reply] inactive

[ask] Outcome? O=C1CC2(CCC(O)(c3ccco3)C(C(=O)c3ccco3)C2)C(=O)c2ccccc2N1 (stereo unspecified)
[reply] inactive

[ask] Outcome? CC(C)c1ccc(C2NC(S)=NC3=C2c2ccccc2C3=O)cc1 (stereo unspecified)
[reply] inactive

[ask] Outcome? COC(c1ccc(O)cc1)C1NC(=O)[C@H](CCC(N)=O)N(C)C(=O)[C@H](CC(C)C)NC(=O)[C@@H](CCCN=C(N)N)NC(=O)[C@H](C(C)O)NC(=O)[C@@H](NC(=O)[C@@H](NC(=O)[C@H](O)[C@H](O)[C@H](CCCN=C(N)N)NC(=O)[C@H](C)NC(=O)[C@H](C)[C@H](O)[C@@H](C)CC(C)C)[C@@H](C)[C@@H](C)C(N)=O)[C@@H](C)OC(=O)[C@H](C)N(C)C1=O (stereo partly drawn) (X50-A[γ4hArg(2R,3R-(OH)2)][Gln(3S,4R-Me2)]T[Thr(3ξ)][dR]L[NMeQ][X51][NMeA]; ester 4-C)
[reply] active

[ask] Outcome? COc1cc2c(cc1Oc1c(Oc3c(O)c(OC)cc4c3C(CC(C)C)N(C)CC4)c(OC)cc3c1C(CC(C)C)N(C)CC3)C(CC(C)C)N(C)CC2 (stereo unspecified)
[reply] inactive

[ask] Outcome? CSc1c(C#N)c(N)n2c1C(=O)N(c1ccccc1)C2=S
[reply] inactive

----------
- Tested on: UO-31
- RUN_DESCRIPTION: NCI tumour cell line growth inhibition, 48 h
Activity calls are given as the source filed them. No stated cut-off is given here; in the data, active = GI50 up to about 1.1 µM and inactive = higher.
Write down the outcome that applies. Available outcomes: active, inactive

Solved entries:
1) CN(C)CC1CCC/C1=N\O (stereo unspecified)	inactive
2) O=C(O)/C(Cl)=C(\Cl)C(=O)NC1C2CC3CC(C2)CC1C3 (stereo unspecified)	inactive
3) CC(C)(C)c1ccc(O)c(C(O)c2ccccn2)c1 (stereo unspecified)	inactive
4) O=C(/C=C/CC(O)(c1ccccc1)c1ccccc1)Nc1ccccc1Cl	inactive

[ask] Outcome? O=C(c1ccccc1)[C@@H]1C[C@H](Sc2ccccc2)c2cc(Cl)ccc2N1
[reply] inactive

[ask] Outcome? COc1cc(C2c3cc4c(cc3OC(Nc3ccc(C(=O)O)cc3)C2C)OCO4)cc(OC)c1OC (stereo unspecified)
[reply] active
